Test: Inhibition of soybean lipoxygenase assessed as conversion of sodium linoleate to 13-hydroperoxylinoleic acid
Parameters: species or system Glycine max
OBSERVED PROPERTY: IC50 (µM)

1) COC(=O)c1cc(=O)oc2c3c(ccc12)CCCC3: 100
2) O=C(O)/C=C/c1ccc(O)c(O)c1: 600

----------
Test: Toxicity in Fisher 344 rat assessed as mortality at 0.01 mmol/kg, ip administered daily once for 4 days measured after 24 hrs final post dose
Assay type: organism-based
Settings: in vivo, read-out: Activity
Listed here: items and their measured mortality at 24 h.
OBSERVED PROPERTY: mortality at 24 h (%)

1) COC(=O)c1cc(=O)oc2c3c(ccc12)OC(C)(C)C3: 0
2) COc1ccc2c(c1)c(CC(=O)O)c(C)n2C(=O)c1ccc(Cl)cc1: 50
